Record form. Attribute: viability, T/C. Fill in for each entry.
# Test system: 521955-158-R2-J5-PDC complex spheroids, viability;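 note: spheroids also contain HUVEC endothelial cells and mesenchymal stem cells as stroma; compound exposure lasted seven days before the viability read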
# assay-protocol: Anticancer human tumor 521955-158-R2-J5-PDC patient-derived pancreatic carcinoma cell line growth inhibition [RAS]
# run-conditions: second compound 0.03 µM; first compound 0.0316 µM; hits give low values
One number for each entry, in %.

Reference set (3 entries):
[[record]]
molecule = "CC(=O)OC12COC1CC(O)C1(C)C(=O)C(O)C3=C(C)C(OC(=O)C(O)C(NC(=O)OC(C)(C)C)c4ccccc4)CC(O)(C(OC(=O)c4ccccc4)C21)C3(C)C (centres undefined) + CCn1c(-c2cccnc2C(C)OC)c2c3cc(ccc31)N1CCOC(CC(NC(=O)C(C(C)C)N(C)C(=O)C3(F)CCN(C(=O)C#CC(C)(C)N(C)C)CC3)C(=O)N3CCCC(N3)C(=O)OCC(C)(C)C2)C1"
measure = "viability, T/C"
result_number = 35.7

[[record]]
molecule = "NC1c2ccccc2OC12CCN(c1cnc3c(N4CCCc5ncccc54)n[nH]c3n1)CC2 (centres undefined) + CCn1c(-c2cc(N3CCN(C)CC3)cnc2C(C)OC)c2c3cc(ccc31)-c1csc(n1)CC(NC(=O)C1CC1C)C(=O)N1CCCC(N1)C(=O)OCC(C)(C)C2"
measure = "viability, T/C"
result_number = 10.4

[[record]]
molecule = "CC(Nc1ccc2c(c1)OCCn1cc(N3C(=O)OCC3C(F)F)nc1-2)C(N)=O (centres undefined) + CCn1c(-c2cc(N3CCN(C)CC3)cnc2C(C)OC)c2c3cc(ccc31)-c1csc(n1)CC(NC(=O)C1CC1C)C(=O)N1CCCC(N1)C(=O)OCC(C)(C)C2"
measure = "viability, T/C"
result_number = 12.8


Alright, here's another molecule for you.
State, for 521955-158-R2-J5-PDC complex spheroids, viability, measured viability, T/C of the molecule listed here: C=CC(=O)Nc1cc(Nc2nccc(-c3cn(C)c4ccccc34)n2)c(OC)cc1N(C)CCN(C)C + CCn1c(-c2cc(N3CCN(C)CC3)cnc2C(C)OC)c2c3cc(ccc31)-c1csc(n1)CC(NC(=O)C1CC1C)C(=O)N1CCCC(N1)C(=O)OCC(C)(C)C2
19.4

The measured values listed here are drawn from PubChem BioAssay AID2060900.
